experiment: Apparent permeability, Papp of the compound at pH 7.4 incubated for 3 hrs by AMP based liquid chromatography; assay type: ADME; conditions: not told
Would you mind labelling by Papp at 3 h? At or over 6 ×10⁻⁶ cm/s is Fulfilled, under is Not fulfilled.

Solved cases (5 shown):
compound=O=C(N[C@H]1CC[C@H](N2CC(F)C2)CC1)c1cnc2cc(C3CC3)ncc2c1 discrete_label=Fulfilled
compound="CC(N[C@H]1CC[C@H](NC(=O)c2cnc3nc(C4CC4)ccc3c2)CC1)C(F)F (mixture of isomers)" discrete_label=Fulfilled
compound=C[C@H]1CCN1c1nc2ncc(C(=O)N[C@H]3CC[C@](C)(O)CC3)cc2cc1Cl discrete_label=Fulfilled
compound=C[C@]1(O)C[C@H](NC(=O)c2cnc3nc(C4CC4)c(Cl)cc3c2)C1 discrete_label=Fulfilled
compound="CC(C)(O)[C@H]1CC2(C[C@H](NC(=O)c3cnc4nc(C5CC5)ccc4c3)C2)C1 (stereo not given in full)" discrete_label="Not fulfilled"

Check if Papp at 3 h >= 6 ×10⁻⁶ cm/s (inclusive). Item: C[C@H]1CCN1c1ccc2cc(C(=O)N[C@H]3CC[C@H](C(C)(C)O)CC3)cnc2n1
Not fulfilled

Check if Papp at 3 h >= 6 ×10⁻⁶ cm/s (inclusive). Item: CC(C)(O)C1CC2(CC(NC(=O)c3cnc4nc(C5CC5)ccc4c3)C2)C1 (stereo not given)
Not fulfilled

Check if Papp at 3 h >= 6 ×10⁻⁶ cm/s (inclusive). Item: CC(C)(O)[C@H]1C[C@H](NC(=O)c2cnc3nc(C4CC4)c(Cl)cc3c2)C1
Fulfilled

Check if Papp at 3 h >= 6 ×10⁻⁶ cm/s (inclusive). Item: CC(C)(O)[C@H]1C[C@H](NC(=O)c2cnc3cc(C4CC4)ncc3c2)C1
Fulfilled

Check if Papp at 3 h >= 6 ×10⁻⁶ cm/s (inclusive). Item: O=C(N[C@H]1CCNC1=O)c1cnc2nc(C3CC3)c(Cl)cc2c1
Not fulfilled

Check if Papp at 3 h >= 6 ×10⁻⁶ cm/s (inclusive). Item: C[C@]1(O)C[C@@H](NC(=O)c2cnc3nc(C4CC4)c(Cl)cc3c2)C1
Fulfilled
